Origin of values: the RNAGym collection of RNA variant scans (doi:10.7554/elife.90254)

B1: LINE1-mini (parent)
chain: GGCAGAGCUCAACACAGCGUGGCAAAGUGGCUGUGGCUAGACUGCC

# Variants of: B1
# Assay Name: self-cleavage, relative activity (ratio to wild type); higher = more cleavage; in vitro, sequencing; the parent is a self-cleaving ribozyme
Outcome label depends on self-cleavage relative to 0.05: at/above gives T, below gives F.

Mutation Spec	Group Label
U20A C31A	T
C15A G40U	T
U20A G22U	T
A4U C42G	T
A11G A16U	F
A12C G40A	F

Query string: Could you tell me if the measured self-cleavage of G2U U43G reaches 0.05 or more?
Result string: F

Query string: Could you tell me if the measured self-cleavage of A11C G17A reaches 0.05 or more?
Result string: F

Query string: Could you tell me if the measured self-cleavage of U20A U28G reaches 0.05 or more?
Result string: T
